B1: library; a variant is named by its letters at N, in order (parent)
chain: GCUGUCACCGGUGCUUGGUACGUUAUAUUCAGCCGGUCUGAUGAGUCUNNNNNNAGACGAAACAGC

- Variants of: B1
- assay comment: normalized RNA/DNA level without ligand (relative to sTRSVctl = 100) (log10 (% of sTRSVctl)); HEK293T overexpressing SLC46A1; higher = less ribozyme self-cleavage, higher mRNA level
- condition set: without (6R,S)-folinic acid; ligand present: no
quantity: normalized RNA/DNA level without ligand (log10)

>  <variant code>
CAGAUG

>  <recorded value>
2.01

$$$$
>  <variant code>
UGGGAG

>  <recorded value>
1.6

$$$$
>  <variant code>
AACGCU

>  <recorded value>
2.01

$$$$
>  <variant code>
UUUACG

>  <recorded value>
1.86

$$$$
>  <variant code>
CCCCAG

>  <recorded value>
2

$$$$
>  <variant code>
GGGGAU

>  <recorded value>
2

$$$$
>  <variant code>
AUUGGC

>  <recorded value>
2.01

$$$$
>  <variant code>
UCGUCU

>  <recorded value>
2.02

$$$$
>  <variant code>
GAUGCC

>  <recorded value>
2.01

$$$$
>  <variant code>
GGGAAC

>  <recorded value>
2

$$$$
>  <variant code>
UCGUAA

>  <recorded value>
1.94

$$$$
